Taken from paper PMC5632533.

system: ICR (CD-1) mice; assay: In vivo toxicity in mice (SC, IN, IP routes); details: IN, 3 doses (1hr, 12hr, 24hr); head doses: RN7-IN10, RN7-IN8 20 mg/kg; RN7-IN9, RN7-IN6 10 mg/kg; day 7; mean±SD, 4 mice
In this section we review reported Lymphocytes values for a set of substances.
reportedProperty: Lymphocytes (%)

INSERT INTO measurements (substance, reportedmeasurement) VALUES
  ('FLGGLIKWKWPWWPWRR-NH2 [RN7-IN10, hybrid peptide of ranalexin (residues 1-7) and indolicidin (residues 4-13)]', 58.5),
  ('FLGGLIKKWPWWPWRR-NH2 [RN7-IN9, hybrid peptide of ranalexin (residues 1-7) and indolicidin (residues 5-13)]', 41.27),
  ('FLGGLIKWPWWPWRR-NH2 [RN7-IN8, hybrid peptide of ranalexin (residues 1-7) and indolicidin (residues 6-13)]', 45.6),
  ('FLGGLIKWWPWRR-NH2 [RN7-IN6, hybrid peptide of ranalexin (residues 1-7) and indolicidin (residues 8-13)]', 47.67);

###

Listed below: Erythrocytes, RBC values for each entry.
system: ICR (CD-1) mice; test: In vivo toxicity in mice (SC, IN, IP routes); conditions: IN, 3 doses (1hr, 12hr, 24hr); head doses: RN7-IN10, RN7-IN8 20 mg/kg; RN7-IN9, RN7-IN6 10 mg/kg; day 7; mean±SD, 4 mice
reportedProperty: Erythrocytes, RBC

INSERT INTO results (substance, studytarget, reportedproperty, reportedmeasurement) VALUES
  ('FLGGLIKWKWPWWPWRR-NH2 [RN7-IN10, hybrid peptide of ranalexin (residues 1-7) and indolicidin (residues 4-13)]', 'ICR (CD-1) mice', 'Erythrocytes, RBC', '9.62±0.79 10^6/mm^3'),
  ('FLGGLIKWWPWRR-NH2 [RN7-IN6, hybrid peptide of ranalexin (residues 1-7) and indolicidin (residues 8-13)]', 'ICR (CD-1) mice', 'Erythrocytes, RBC', '9.12±0.25 10^6/mm^3'),
  ('FLGGLIKKWPWWPWRR-NH2 [RN7-IN9, hybrid peptide of ranalexin (residues 1-7) and indolicidin (residues 5-13)]', 'ICR (CD-1) mice', 'Erythrocytes, RBC', '9.36±0.9 10^6/mm^3'),
  ('FLGGLIKWPWWPWRR-NH2 [RN7-IN8, hybrid peptide of ranalexin (residues 1-7) and indolicidin (residues 6-13)]', 'ICR (CD-1) mice', 'Erythrocytes, RBC', '8.95±0.53 10^6/mm^3');

###

tested on: ICR (CD-1) mice; assay: In vivo toxicity in mice (SC, IN, IP routes); details: IP, 3 doses (1hr, 12hr, 24hr); RN7-IN10, RN7-IN8 20 mg/kg; RN7-IN9, RN7-IN6 10 mg/kg; day 7; mean±SD, 4 mice
# reported Mean corpuscular volume, MCV; entries follow
reportedProperty: Mean corpuscular volume, MCV (µm^3)

INSERT INTO results (substance, reportedproperty, reportedmeasurement) VALUES
  ('FLGGLIKWKWPWWPWRR-NH2 [RN7-IN10, hybrid peptide of ranalexin (residues 1-7) and indolicidin (residues 4-13)]', 'Mean corpuscular volume, MCV', 50.75),
  ('FLGGLIKKWPWWPWRR-NH2 [RN7-IN9, hybrid peptide of ranalexin (residues 1-7) and indolicidin (residues 5-13)]', 'Mean corpuscular volume, MCV', 51.5),
  ('FLGGLIKWPWWPWRR-NH2 [RN7-IN8, hybrid peptide of ranalexin (residues 1-7) and indolicidin (residues 6-13)]', 'Mean corpuscular volume, MCV', 52.75),
  ('FLGGLIKWWPWRR-NH2 [RN7-IN6, hybrid peptide of ranalexin (residues 1-7) and indolicidin (residues 8-13)]', 'Mean corpuscular volume, MCV', 50.5);

###

test system: ICR (CD-1) mice; assay: In vivo toxicity in mice (SC, IN, IP routes); details: IN, 3 doses (1hr, 12hr, 24hr); head doses: RN7-IN10, RN7-IN8 20 mg/kg; RN7-IN9, RN7-IN6 10 mg/kg; day 7; mean±SD, 4 mice
reportedProperty: Hemoglobin Hgb (g/dL)

INSERT INTO assay_data (substance, units, reportedmeasurement) VALUES
  ('FLGGLIKWWPWRR-NH2 [RN7-IN6, hybrid peptide of ranalexin (residues 1-7) and indolicidin (residues 8-13)]', 'g/dL', 15),
  ('FLGGLIKKWPWWPWRR-NH2 [RN7-IN9, hybrid peptide of ranalexin (residues 1-7) and indolicidin (residues 5-13)]', 'g/dL', 14.9),
  ('FLGGLIKWKWPWWPWRR-NH2 [RN7-IN10, hybrid peptide of ranalexin (residues 1-7) and indolicidin (residues 4-13)]', 'g/dL', 15.47),
  ('FLGGLIKWPWWPWRR-NH2 [RN7-IN8, hybrid peptide of ranalexin (residues 1-7) and indolicidin (residues 6-13)]', 'g/dL', 14.42);

###

tested on: ICR (CD-1) mice; assay: In vivo toxicity in mice (SC, IN, IP routes); details: IN, 3 doses (1hr, 12hr, 24hr); head doses: RN7-IN10, RN7-IN8 20 mg/kg; RN7-IN9, RN7-IN6 10 mg/kg; day 7; mean±SD, 4 mice
reportedProperty: White blood cells, WBC

INSERT INTO assay_data (substance, reportedproperty, reportedmeasurement) VALUES
  ('FLGGLIKKWPWWPWRR-NH2 [RN7-IN9, hybrid peptide of ranalexin (residues 1-7) and indolicidin (residues 5-13)]', 'White blood cells, WBC', '5.2±2.35 10^3/mm^3'),
  ('FLGGLIKWPWWPWRR-NH2 [RN7-IN8, hybrid peptide of ranalexin (residues 1-7) and indolicidin (residues 6-13)]', 'White blood cells, WBC', '3.95±0.54 10^3/mm^3'),
  ('FLGGLIKWKWPWWPWRR-NH2 [RN7-IN10, hybrid peptide of ranalexin (residues 1-7) and indolicidin (residues 4-13)]', 'White blood cells, WBC', '5.2±1.44 10^3/mm^3'),
  ('FLGGLIKWWPWRR-NH2 [RN7-IN6, hybrid peptide of ranalexin (residues 1-7) and indolicidin (residues 8-13)]', 'White blood cells, WBC', '3.6±0.35 10^3/mm^3');

###

tested on: ICR (CD-1) mice; test: In vivo toxicity in mice (SC, IN, IP routes); settings: SC, 3 doses (1hr, 12hr, 24hr); head doses: RN7-IN10, RN7-IN8 20 mg/kg; RN7-IN9, RN7-IN6 10 mg/kg; day 7; mean±SD, 4 mice
Reported Mean corpuscular haemoglobin concentration, MCHC values follow for various substances
reportedProperty: Mean corpuscular haemoglobin concentration, MCHC (g/dL)

INSERT INTO results (substance, reportedmeasurement) VALUES
  ('FLGGLIKWPWWPWRR-NH2 [RN7-IN8, hybrid peptide of ranalexin (residues 1-7) and indolicidin (residues 6-13)]', 34.38),
  ('FLGGLIKWWPWRR-NH2 [RN7-IN6, hybrid peptide of ranalexin (residues 1-7) and indolicidin (residues 8-13)]', 32.87),
  ('FLGGLIKKWPWWPWRR-NH2 [RN7-IN9, hybrid peptide of ranalexin (residues 1-7) and indolicidin (residues 5-13)]', 34.2),
  ('FLGGLIKWKWPWWPWRR-NH2 [RN7-IN10, hybrid peptide of ranalexin (residues 1-7) and indolicidin (residues 4-13)]', 34.45);

###

Tested on: ICR (CD-1) mice
Test: In vivo toxicity in mice (SC, IN, IP routes)
Conditions: IN, 3 doses (1hr, 12hr, 24hr); head doses: RN7-IN10, RN7-IN8 20 mg/kg; RN7-IN9, RN7-IN6 10 mg/kg; day 7; mean±SD, 4 mice
Procedure: In this study, 4-week old male, pathogen free ICR (CD-1) mice were purchased from InVivos (Lim Chu Kang, Singapore) and used to assess the in vivo toxicity and antibacterial efficacy of the novel peptides, as these animals are by far the most commonly used model for the study of pneumococcal disease ([Chiavolini, Pozzi & Ricci, 2008]). The mice were kept in ventilated polycarbonate cages (12 h light/dark cycle, 20 ± 2 °C and 55% relative humidity). […]
reportedProperty: Mean corpuscular haemoglobin, MCH (pg)

INSERT INTO measurements (substance, units, reportedmeasurement) VALUES
  ('FLGGLIKWWPWRR-NH2 [RN7-IN6, hybrid peptide of ranalexin (residues 1-7) and indolicidin (residues 8-13)]', 'pg', 16.5),
  ('FLGGLIKWPWWPWRR-NH2 [RN7-IN8, hybrid peptide of ranalexin (residues 1-7) and indolicidin (residues 6-13)]', 'pg', 16.12),
  ('FLGGLIKWKWPWWPWRR-NH2 [RN7-IN10, hybrid peptide of ranalexin (residues 1-7) and indolicidin (residues 4-13)]', 'pg', 20),
  ('FLGGLIKKWPWWPWRR-NH2 [RN7-IN9, hybrid peptide of ranalexin (residues 1-7) and indolicidin (residues 5-13)]', 'pg', 15.95);

###

system: ICR (CD-1) mice; assay: In vivo toxicity in mice (SC, IN, IP routes); parameters: unit not given here; conditions: serum; IP, 3 doses (1hr, 12hr, 24hr); RN7-IN10, RN7-IN8 20 mg/kg; RN7-IN9, RN7-IN6 10 mg/kg; day 7; mean±SD, 4 mice
As shown below, each of these substances has a reported Aspartate aminotransferase, AST value.
reportedProperty: Aspartate aminotransferase, AST

INSERT INTO results (substance, reportedmeasurement) VALUES
  ('FLGGLIKKWPWWPWRR-NH2 [RN7-IN9, hybrid peptide of ranalexin (residues 1-7) and indolicidin (residues 5-13)]', 172.33),
  ('FLGGLIKWPWWPWRR-NH2 [RN7-IN8, hybrid peptide of ranalexin (residues 1-7) and indolicidin (residues 6-13)]', 148.9),
  ('FLGGLIKWWPWRR-NH2 [RN7-IN6, hybrid peptide of ranalexin (residues 1-7) and indolicidin (residues 8-13)]', 176),
  ('FLGGLIKWKWPWWPWRR-NH2 [RN7-IN10, hybrid peptide of ranalexin (residues 1-7) and indolicidin (residues 4-13)]', 181.66);
